assay: Cytotoxicity against human SW620 cells assessed as cell survival rate at 64 microg/ml incubated for 48 hrs by CCK8 assay relative to control
Format: toxicity, cell-based, SW-620
run.parameters: at 64 µg/mL, read-out: Activity
Recorded viability at 48 h, 64 microg/ml for the following molecules
measurement.label: viability at 48 h, 64 microg/ml (%)

CCCCCCCCNC(=O)C[n+]1ccc(C(=O)N2CCN(c3cc4c(cc3F)c(=O)c(C(=O)O)cn4C3CC3)CC2)cc1.[Br-] ... 68.2
C=C[C@]1(C)C[C@@H](OC(=O)CS[C@@H]2C[C@H]3CC[C@@H](C2)N3C)[C@]2(C)[C@H](C)CC[C@]3(CCC(=O)[C@H]32)[C@@H](C)[C@@H]1O [RETAPAMULIN] ... 4.7
C=C[C@]1(C)C[C@@H](OC(=O)CSCCN(CC)CC)[C@]2(C)[C@H](C)CC[C@]3(CCC(=O)[C@H]32)[C@@H](C)[C@@H]1O [TIAMULIN] ... 32.9

====

assay: Hemolytic activity in sheep RBC assessed as hemolysis incubated for 1 hrs by absorbance based assay
Format: toxicity, cell-based, Ovis aries, Erythrocyte
run.parameters: sheep red blood cells
measurement.label: HC50 at 1 h (µg/mL)

CCCCCCCNC(=O)C[N+](C)(C)CCCOc1ccc(OCCC[N+](C)(C)CC(=O)NCCCCCCC)cc1.[Br-].[Br-] ... 1220

====

assay: Cytotoxicity against rat HBZY-1 cells assessed as cell survival rate at 64 microg/ml incubated for 48 hrs by CCK8 assay relative to control
Assay type: toxicity, cell-based
run.parameters: at 64 µg/mL, read-out: Activity
measurement.label: viability at 48 h, 64 microg/ml (%)

C=C[C@]1(C)C[C@@H](OC(=O)CSCCN(CC)CC)[C@]2(C)[C@H](C)CC[C@]3(CCC(=O)[C@H]32)[C@@H](C)[C@@H]1O ... 85.9
C=C[C@]1(C)C[C@@H](OC(=O)CS[C@@H]2C[C@H]3CC[C@@H](C2)N3C)[C@]2(C)[C@H](C)CC[C@]3(CCC(=O)[C@H]32)[C@@H](C)[C@@H]1O ... 1.7
CCCCCCCCNC(=O)C[n+]1ccc(C(=O)N2CCN(c3cc4c(cc3F)c(=O)c(C(=O)O)cn4C3CC3)CC2)cc1.[Br-] ... 96.9
